meta.source: the RNAGym collection of RNA variant scans (doi:10.7554/elife.80360)

B1: HDV Ribozyme (parent)
chain: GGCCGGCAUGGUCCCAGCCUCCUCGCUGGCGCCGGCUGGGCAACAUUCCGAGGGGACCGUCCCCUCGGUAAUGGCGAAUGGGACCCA

- Variants of: B1
- experiment-summary: self-cleavage, relative activity (ratio to wild type); higher = more cleavage; co-transcriptional
Lab note: anything with self-cleavage at or over 0.3 counts as YES; the rest go in NO.

Use the examples below as a reference point.
> print(dat)
   variant.spec  assigned.class
1     C14G U72A             YES
2      G5U A42U              NO
3     C30A G68U             YES
4     A77G A78U              NO
5     C18A U65G              NO
6     C18A G40U              NO
7     G73U C86A             YES
8     A43C C62G             YES

Is self-cleavage at least 0.3? Consider G31A C84U
YES

And what about the variant U60C G68U ?
YES
